test: Binding affinity to uridylated H69 50s rRNA (unknown origin) at 2:1 peptide:RNA ratio by ESI-MS analysis; conditions: read-out: Kd(app)
pKd: −log10 of the molar value.
PARAMETER: pKd

>>> print(df.to_string())
       substance  assay_result
0  H-NQAANHQ-NH2          6.00

* * *

Reported pKd by item:
assay: Binding affinity to uridylated H69 50s rRNA (unknown origin) by ESI-MS analysis; details: read-out: Kd(app)
pKd: −log10 of the molar value.
PARAMETER: pKd

In [3]: df
Out[3]:
        substance  parameter  assay_result
 0  H-NQVRNHQ-NH2        pKd          4.66
 1  H-NQVAAHQ-NH2        pKd          4.84
 2  H-NAVANHQ-NH2        pKd          4.28
 3  H-NQVANHA-NH2        pKd          4.32
 4  H-NQVARHQ-NH2        pKd          4.78
 5  H-NRVANHQ-NH2        pKd          4.45
 6  H-RQVANHQ-NH2        pKd          5.00
 7  H-NQVANRQ-NH2        pKd          4.84
 8  H-AQVANHQ-NH2        pKd          5.00
 9  H-NQVANHQ-NH2        pKd          4.64
10  H-NQVANHR-NH2        pKd          4.69

* * *

test: Binding affinity to 5'-biotin labeled pseudouridylated H69 50s rRNA (unknown origin) at 2:1 peptide:RNA ratio by ESI-MS analysis; conditions: read-out: Kd(app)
PARAMETER: Kd (µM)

       substance  assay_result
0  H-NQRANHQ-NH2             6

* * *

test: Binding affinity to pseudouridylated H69 50s rRNA (unknown origin) at 2:1 peptide:RNA ratio by ESI-MS analysis; conditions: read-out: Kd(app)
PARAMETER: Kd

       substance  parameter  assay_result
0  H-NQAANHQ-NH2         Kd          5 µM

* * *

Reported pKd by item:
assay: Binding affinity to pseudouridylated H69 50s rRNA (unknown origin) by ESI-MS analysis; conditions: read-out: Kd(app)
pKd: −log10 of the molar value.
PARAMETER: pKd

>>> df
       substance  inequality_sign  assay_result
0  H-RQVANHQ-NH2                =          5.68
1  H-NRVANHQ-NH2                <          4.40
2  H-NQVAHHQ-NH2                =          4.80
3  H-NQVRNHQ-NH2                <          4.70
4  H-NQVANAH-NH2                <          4.70
5  H-NAVANHQ-NH2                =          5.34
6  H-NQVANHQ-NH2                =          5.34
7  H-NQVANHA-NH2                =          4.87
8  H-NQVANRQ-NH2                =          5.35
9  H-NQVANHH-NH2                <          4.70

Source of measurements: ChEMBL document CHEMBL3822372
